Data origin, for the record: patent US20210032365A1

# target under test: T1, human C1s (human, UniProt P09871 16-688)
# T1 construct: also called hC1s; serum-derived human C1s (CompTech)
# T1 sequence: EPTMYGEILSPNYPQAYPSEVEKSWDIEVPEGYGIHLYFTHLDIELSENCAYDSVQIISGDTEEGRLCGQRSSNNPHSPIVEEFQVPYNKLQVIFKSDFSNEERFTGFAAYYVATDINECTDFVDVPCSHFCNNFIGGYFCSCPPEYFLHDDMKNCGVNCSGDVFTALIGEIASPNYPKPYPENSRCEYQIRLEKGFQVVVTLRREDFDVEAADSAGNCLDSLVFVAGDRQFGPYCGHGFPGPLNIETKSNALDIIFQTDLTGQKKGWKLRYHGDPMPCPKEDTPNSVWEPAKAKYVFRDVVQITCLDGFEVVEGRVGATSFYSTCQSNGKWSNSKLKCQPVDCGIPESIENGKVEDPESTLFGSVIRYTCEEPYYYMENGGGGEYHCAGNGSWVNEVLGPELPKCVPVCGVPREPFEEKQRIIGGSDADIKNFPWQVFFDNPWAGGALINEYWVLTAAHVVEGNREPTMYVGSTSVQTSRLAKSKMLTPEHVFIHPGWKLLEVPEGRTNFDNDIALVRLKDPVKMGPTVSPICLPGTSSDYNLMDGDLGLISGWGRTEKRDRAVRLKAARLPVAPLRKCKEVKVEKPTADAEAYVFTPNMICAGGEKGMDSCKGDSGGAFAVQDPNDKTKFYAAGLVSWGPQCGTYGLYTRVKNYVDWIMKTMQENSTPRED
# test details: SPR, Ab captured; pH 5.8, 3 uM Ca
readout: kon (M⁻¹ s⁻¹)
# value in M⁻¹ s⁻¹; strip the unit string

Query block: Any idea what its kon is? The binder is C1_IPN92H0033-SG4GK/IPN93L0028-SK1 (antibody, human IgG4 S228P, kappa, name in Kabat numbering, V domains shown, also called IPN92H0033/IPN93L0028) VH: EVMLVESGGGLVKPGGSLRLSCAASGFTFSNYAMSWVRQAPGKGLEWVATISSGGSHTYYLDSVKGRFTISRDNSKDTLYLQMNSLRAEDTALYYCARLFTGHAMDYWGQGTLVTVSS VL: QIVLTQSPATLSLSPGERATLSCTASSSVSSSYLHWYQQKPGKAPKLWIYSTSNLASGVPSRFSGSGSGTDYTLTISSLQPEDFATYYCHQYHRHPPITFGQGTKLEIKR
Result block: 658000

Query block: Any idea what its kon is? The binder is C1_IPN92H0026-SG4GK/IPN93L0021-SK1 (antibody, human IgG4 S228P, kappa, name in Kabat numbering, V domains shown, also called IPN92H0026/IPN93L0021) VH: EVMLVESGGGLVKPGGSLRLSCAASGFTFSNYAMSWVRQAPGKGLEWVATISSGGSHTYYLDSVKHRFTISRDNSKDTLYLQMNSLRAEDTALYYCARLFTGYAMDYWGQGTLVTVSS VL: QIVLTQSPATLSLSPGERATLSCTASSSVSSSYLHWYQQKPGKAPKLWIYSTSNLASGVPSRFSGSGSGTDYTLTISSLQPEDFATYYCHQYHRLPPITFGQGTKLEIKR
Result block: 2.1e+07

Query block: Any idea what its kon is? The binder is C1_IPN92H0026-SG4GK/IPN93L0029-SK1 (antibody, human IgG4 S228P, kappa, name in Kabat numbering, V domains shown, also called IPN92H0026/IPN93L0029) VH: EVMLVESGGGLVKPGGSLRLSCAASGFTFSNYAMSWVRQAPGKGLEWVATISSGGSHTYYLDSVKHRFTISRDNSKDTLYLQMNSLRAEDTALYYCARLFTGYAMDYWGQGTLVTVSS VL: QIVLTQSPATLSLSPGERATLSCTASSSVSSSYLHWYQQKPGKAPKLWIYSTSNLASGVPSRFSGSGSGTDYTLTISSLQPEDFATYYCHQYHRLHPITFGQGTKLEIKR
Result block: 812000

Query block: Any idea what its kon is? The binder is C1_IPN92H0026-SG4GK/IPN93L0030-SK1 (antibody, human IgG4 S228P, kappa, name in Kabat numbering, V domains shown, also called IPN92H0026/IPN93L0030) VH: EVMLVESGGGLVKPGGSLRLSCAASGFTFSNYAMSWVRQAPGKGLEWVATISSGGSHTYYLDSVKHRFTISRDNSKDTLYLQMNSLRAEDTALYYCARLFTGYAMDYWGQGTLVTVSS VL: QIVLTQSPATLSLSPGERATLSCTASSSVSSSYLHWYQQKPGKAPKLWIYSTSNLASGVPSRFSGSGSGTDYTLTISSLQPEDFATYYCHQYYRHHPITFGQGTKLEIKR
Result block: 4460

Query block: Any idea what its kon is? The binder is C1_IPN92H0038-SG4GK/IPN93L0031-SK1 (antibody, human IgG4 S228P, kappa, name in Kabat numbering, V domains shown, also called IPN92H0038/IPN93L0031) VH: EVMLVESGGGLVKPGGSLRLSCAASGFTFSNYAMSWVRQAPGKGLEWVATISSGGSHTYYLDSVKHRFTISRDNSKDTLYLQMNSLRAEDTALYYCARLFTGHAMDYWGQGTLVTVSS VL: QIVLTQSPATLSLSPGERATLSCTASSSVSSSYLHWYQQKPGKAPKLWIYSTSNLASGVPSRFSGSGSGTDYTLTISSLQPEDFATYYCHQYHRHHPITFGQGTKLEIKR
Result block: 1.22e+06

Query block: Any idea what its kon is? The binder is C1_IPN009VH2-SG4GK/IPN93L0031-SK1 (antibody, human IgG4 S228P, kappa, name in Kabat numbering, V domains shown, also called IPN009VH2/IPN93L0031) VH: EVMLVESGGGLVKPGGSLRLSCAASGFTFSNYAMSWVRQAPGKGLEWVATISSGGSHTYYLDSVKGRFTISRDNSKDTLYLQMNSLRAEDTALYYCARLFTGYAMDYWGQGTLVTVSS VL: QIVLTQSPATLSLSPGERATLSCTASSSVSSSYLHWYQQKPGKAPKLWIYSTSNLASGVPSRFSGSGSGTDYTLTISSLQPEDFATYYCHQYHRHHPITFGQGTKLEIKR
Result block: 711

Query block: Any idea what its kon is? The binder is C1_IPN92H0026-SG4GK/IPN93L0028-SK1 (antibody, human IgG4 S228P, kappa, name in Kabat numbering, V domains shown, also called IPN92H0026/IPN93L0028) VH: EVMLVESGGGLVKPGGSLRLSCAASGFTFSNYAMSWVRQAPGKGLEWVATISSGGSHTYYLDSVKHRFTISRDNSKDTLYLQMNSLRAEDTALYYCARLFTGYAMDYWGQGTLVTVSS VL: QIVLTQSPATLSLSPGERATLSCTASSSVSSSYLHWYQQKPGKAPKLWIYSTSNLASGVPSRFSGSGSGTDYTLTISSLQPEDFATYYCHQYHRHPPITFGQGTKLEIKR
Result block: 6.4e+06

Query block: Any idea what its kon is? The binder is C1_IPN92H0038-SG4GK/IPN93L0030-SK1 (antibody, human IgG4 S228P, kappa, name in Kabat numbering, V domains shown, also called IPN92H0038/IPN93L0030) VH: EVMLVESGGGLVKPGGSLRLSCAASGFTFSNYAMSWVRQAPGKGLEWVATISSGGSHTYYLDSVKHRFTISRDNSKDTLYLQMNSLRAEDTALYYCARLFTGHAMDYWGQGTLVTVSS VL: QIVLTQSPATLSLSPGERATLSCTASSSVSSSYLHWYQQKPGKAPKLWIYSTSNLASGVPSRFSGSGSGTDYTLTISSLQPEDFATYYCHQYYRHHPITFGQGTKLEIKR
Result block: 8980

Query block: Any idea what its kon is? The binder is C1_IPN92H0038-SG4GK/IPN93L0028-SK1 (antibody, human IgG4 S228P, kappa, name in Kabat numbering, V domains shown, also called IPN92H0038/IPN93L0028) VH: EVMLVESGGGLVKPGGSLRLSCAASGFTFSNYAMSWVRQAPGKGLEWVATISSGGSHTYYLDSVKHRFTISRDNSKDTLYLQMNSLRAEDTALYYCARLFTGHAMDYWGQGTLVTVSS VL: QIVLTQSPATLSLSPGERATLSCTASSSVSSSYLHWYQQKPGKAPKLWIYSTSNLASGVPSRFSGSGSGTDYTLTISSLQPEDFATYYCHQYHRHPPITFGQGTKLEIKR
Result block: 637000

Query block: Any idea what its kon is? The binder is C1_IPN009VH2-SG4GK/IPN93L0030-SK1 (antibody, human IgG4 S228P, kappa, name in Kabat numbering, V domains shown, also called IPN009VH2/IPN93L0030) VH: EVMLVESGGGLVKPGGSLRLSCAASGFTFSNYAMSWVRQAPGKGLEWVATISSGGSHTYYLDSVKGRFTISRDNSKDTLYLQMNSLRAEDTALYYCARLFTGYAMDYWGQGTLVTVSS VL: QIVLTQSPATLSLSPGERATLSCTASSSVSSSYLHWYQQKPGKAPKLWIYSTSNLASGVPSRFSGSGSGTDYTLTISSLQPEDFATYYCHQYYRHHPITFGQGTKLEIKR
Result block: 4.42e+06
